Target: Calmodulin-dependent cyclic-AMP phosphodiesterase (EC 3.1.4.17) (Bos taurus)
Construct: An enzyme substance isolated from the heart of bovine and purified partially; from tissue; host or cells: bovine heart
Experiment: Pharmacological Test-2 (2): Cyclic-AMP phosphodiesterase inhibitory activity (EGTA in place of CaCl2)
Type: biochemical, bovine
value-kind: pIC50
pIC50 field: float, defined as -log10 of concentration (mol/L).

Looking up COC(=O)C1=C(C)NC(C)=C(C(=O)OCCN(C)Cc2ccccc2)C1c1cccc([N+](=O)[O-])c1 (stereo not shown) [Test Compound 18, reference compound] , I see its pIC50 listed as 4.57

====

Biological target: Calmodulin-cyclic-AMP phosphodiesterase (Bos taurus, UniProt P14100+P62157)
Construct: An enzyme substance isolated from the heart of bovine and purified partially; which was isolated from the brain of bovine, and purified so as to be considered as a single substance; the calmodulin is a bovine brain product of Amano & Co
Test: Pharmacological Test-2 (1): Calmodulin-cyclic-AMP phosphodiesterase inhibitory activity (with calmodulin, CaCl2)
Settings: in the presence of calmodulin, CaCl2, pH 7.0, 30° C., 30 minutes
Item-by-item account of pIC50
pIC50 field: float, defined as -log10 of concentration (mol/L).

Some solved entries appear below for comparison.
[
  {
    "compound": "COC(=O)C1=C(C)NC(C)=C(C(=O)OCC/C=C/c2ccc(SC)cc2)C1c1cccc([N+](=O)[O-])c1 (stereo not shown)",
    "target-of-assay": "Calmodulin-cyclic-AMP phosphodiesterase (Bos taurus, UniProt P14100+P62157)",
    "observed-result": 6.91
  },
  {
    "compound": "COC(=O)C1=C(C)NC(C)=C(C(=O)OCC#Cc2ccc(O)cc2)C1c1cccc([N+](=O)[O-])c1 (stereo not shown)",
    "target-of-assay": "Calmodulin-cyclic-AMP phosphodiesterase (Bos taurus, UniProt P14100+P62157)",
    "observed-result": 5.77
  },
  {
    "compound": "COC(=O)C1=C(C)NC(C)=C(C(=O)OC/C=C/c2ccc(O)cc2)C1c1cccc([N+](=O)[O-])c1 (stereo not shown)",
    "target-of-assay": "Calmodulin-cyclic-AMP phosphodiesterase (Bos taurus, UniProt P14100+P62157)",
    "observed-result": 5.05
  }
]

The value of pIC50 recorded for COC(=O)C1=C(C)NC(C)=C(C(=O)OC/C=C/c2cccc(O)c2)C1c1ccccc1[N+](=O)[O-] (stereo not shown) when tested on Calmodulin-cyclic-AMP phosphodiesterase (Bos taurus, UniProt P14100+P62157) reads 5.71

====

Target: Calmodulin-dependent cyclic-AMP phosphodiesterase (EC 3.1.4.17) (Bos taurus, UniProt P14100)
Construct: An enzyme substance isolated from the heart of bovine and purified partially; from tissue; host or cells: bovine heart
Sequence (P14100 1-514 isoform P14100-2): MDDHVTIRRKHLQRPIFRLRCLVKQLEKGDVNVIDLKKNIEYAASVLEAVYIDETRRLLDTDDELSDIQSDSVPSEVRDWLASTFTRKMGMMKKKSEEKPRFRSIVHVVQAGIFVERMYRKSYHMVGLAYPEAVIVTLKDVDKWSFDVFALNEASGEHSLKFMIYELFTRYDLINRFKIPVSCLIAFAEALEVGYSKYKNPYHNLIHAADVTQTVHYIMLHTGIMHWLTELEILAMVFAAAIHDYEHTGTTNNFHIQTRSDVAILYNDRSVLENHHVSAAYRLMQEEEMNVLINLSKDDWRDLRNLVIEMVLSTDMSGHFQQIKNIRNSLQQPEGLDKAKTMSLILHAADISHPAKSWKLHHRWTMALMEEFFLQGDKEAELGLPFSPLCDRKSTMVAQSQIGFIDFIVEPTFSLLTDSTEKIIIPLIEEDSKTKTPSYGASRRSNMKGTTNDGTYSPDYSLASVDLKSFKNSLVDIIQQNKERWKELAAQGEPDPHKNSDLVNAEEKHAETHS
Experiment: Pharmacological Test-2 (2): Cyclic-AMP phosphodiesterase inhibitory activity (EGTA in place of CaCl2)
Format: biochemical, bovine
Settings: 1 mM EGTA in place of CaCl2, 3 hours; read-out: Cyclic-AMP phosphodiesterase IC50 (converted)
value-kind: IC50 (µM)
Provide only the numeric value, understood in µM.

Some solved entries appear below for comparison.
[
  {
    "compound": "COC(=O)C1=C(C)NC(C)=C(C(=O)OC/C=C/c2cccc(O)c2)C1c1ccccc1[N+](=O)[O-] (stereo not shown)",
    "value-kind": "IC50",
    "observed-result": 53
  },
  {
    "compound": "COC(=O)C1=C(C)NC(C)=C(C(=O)OC/C=C/c2ccc(O)cc2)C1c1ccccc1C (stereo not shown)",
    "value-kind": "IC50",
    "observed-result": 134
  },
  {
    "compound": "COC(=O)C1=C(C)NC(C)=C(C(=O)OC/C=C/c2ccccc2O)C1c1cccc([N+](=O)[O-])c1 (stereo not shown)",
    "value-kind": "IC50",
    "observed-result": 26.9
  }
]

Looking up COC(=O)C1=C(C)NC(C)=C(C(=O)OC/C=C/c2ccc(O)c(OC)c2)C1c1cccc([N+](=O)[O-])c1 (stereo not shown) , I see its IC50 listed as 174
